# systemTested: recombinant mouse APA (Mus musculus, UniProt P16406)
# Sequence (P16406 whole entry): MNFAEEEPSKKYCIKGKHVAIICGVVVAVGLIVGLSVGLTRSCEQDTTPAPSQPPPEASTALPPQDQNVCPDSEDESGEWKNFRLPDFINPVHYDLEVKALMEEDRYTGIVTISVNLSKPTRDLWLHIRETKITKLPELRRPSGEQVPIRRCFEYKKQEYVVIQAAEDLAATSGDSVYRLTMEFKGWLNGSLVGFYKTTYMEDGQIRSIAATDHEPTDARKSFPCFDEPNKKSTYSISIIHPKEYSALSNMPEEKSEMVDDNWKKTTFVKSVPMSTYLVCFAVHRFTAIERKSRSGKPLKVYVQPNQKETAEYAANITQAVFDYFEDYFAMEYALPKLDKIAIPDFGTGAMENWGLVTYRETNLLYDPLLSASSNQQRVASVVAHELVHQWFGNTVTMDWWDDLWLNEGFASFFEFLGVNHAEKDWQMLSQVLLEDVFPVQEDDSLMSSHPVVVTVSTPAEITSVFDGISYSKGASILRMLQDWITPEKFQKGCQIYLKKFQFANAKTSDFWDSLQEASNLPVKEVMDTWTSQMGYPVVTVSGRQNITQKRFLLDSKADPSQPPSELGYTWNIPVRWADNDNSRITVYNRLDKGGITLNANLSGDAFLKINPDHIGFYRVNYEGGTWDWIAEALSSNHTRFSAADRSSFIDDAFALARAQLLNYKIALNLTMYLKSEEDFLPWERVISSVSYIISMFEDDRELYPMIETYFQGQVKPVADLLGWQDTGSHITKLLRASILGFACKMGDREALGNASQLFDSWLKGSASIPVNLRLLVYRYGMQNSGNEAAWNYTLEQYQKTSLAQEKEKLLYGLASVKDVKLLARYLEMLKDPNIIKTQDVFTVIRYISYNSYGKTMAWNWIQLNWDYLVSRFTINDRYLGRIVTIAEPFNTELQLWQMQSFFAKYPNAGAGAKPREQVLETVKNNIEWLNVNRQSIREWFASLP
# testSummary: Measurement of APA activity in vitro (GluβNa hydrolysis, microplate)
# testConditions: 200 μM Glu-βNa, pH 7.4, 37° C., read-out: In vitro inhibition of aminopeptidase A, IC50 classification
I'd appreciate it if you could supply IC50 values for the items below.

> print(dat)
                                   compound  measure   endpointresult
1  NC(CCC(=O)O)P(=O)(O)Cc1ccc(OC(F)(F)F)cc1 (stereo not drawn)     IC50     30 to 300 nM
2  CS(=O)(=O)c1ccc(CP(=O)(O)C(N)CCC(=O)O)cc1 (stereo not drawn)     IC50  300 to 10000 nM
3  NC(CCS(=O)(=O)O)P(=O)(O)CCCc1ccccc1 (stereo not drawn)     IC50  300 to 10000 nM

Batch request: IC50 for each of the following compounds.
1. NC(CCC(=O)O)P(=O)(O)Cc1cc(-c2ccccc2)on1 (stereo not drawn)
2. NC(CCCC(=O)O)P(=O)(O)CCc1ccccc1 (stereo not drawn)

1. 30 to 300 nM
2. 300 to 10000 nM

Batch request: IC50 for each of the following compounds.
1. NC(CCC(=O)O)P(=O)(O)Cc1cccc(-c2ccccc2)c1 (stereo not drawn)
2. N[C@H](CS)CCS(=O)(=O)O
3. NC(CCS(=O)(=O)O)P(=O)(O)CCc1ccccc1 (stereo not drawn)
4. COCCOc1ccccc1CCP(=O)(O)C(N)CCC(=O)O (stereo not drawn)
5. NC(CCC(=O)O)P(=O)(O)CCc1cccc(Cl)c1 (stereo not drawn)

["30 to 300 nM", "300 to 10000 nM", "300 to 10000 nM", "< 30 nM", "30 to 300 nM"]

Batch request: IC50 for each of the following compounds.
1. COc1ccccc1CCP(=O)(O)C(N)CCC(=O)O (stereo not drawn)
2. N#Cc1ccc(CP(=O)(O)C(N)CCC(=O)O)cc1 (stereo not drawn)
3. Cc1cccc(CCP(=O)(O)C(N)CCC(=O)O)c1 (stereo not drawn)
4. Cc1ccc(CP(=O)(O)C(N)CCC(=O)O)cc1 (stereo not drawn)
5. NC(CCC(=O)O)P(=O)(O)CCc1ccccc1Oc1ccccc1 (stereo not drawn)
6. NC(CCC(=O)O)P(=O)(O)Cc1ccccc1-c1ccccc1 (stereo not drawn)
7. NC(CCS(=O)(=O)O)P(=O)(O)Cc1cc(-c2ccccc2)on1 (stereo not drawn)
8. COc1cc(F)ccc1CCP(=O)(O)C(N)CCC(=O)O (stereo not drawn)

1: < 30 nM; 2: 30 to 300 nM; 3: < 30 nM; 4: 30 to 300 nM; 5: < 30 nM; 6: 300 to 10000 nM; 7: 300 to 10000 nM; 8: < 30 nM

Batch request: IC50 for each of the following compounds.
1. CC(C)(CP(=O)(O)C(N)CCC(=O)O)c1ccccc1 (stereo not drawn)
2. Cc1ccccc1CP(=O)(O)C(N)CCC(=O)O (stereo not drawn)
3. NC(CCS(=O)(=O)O)P(=O)(O)Cc1cccc(-c2ccccc2)c1 (stereo not drawn)

300 to 10000 nM
30 to 300 nM
300 to 10000 nM
